Data provenance: PubChem BioAssay AID1159580

- assay.procedure: chemical genetic growth profiling, strain panel (AID 1159580);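 further: tested at 20 µM; growth read once vehicle control cultures reached saturation at 30 °C; 1 = growth at the plate median or of vehicle wells; lower values mean less growth of the strain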
- applied.conditions: S. cerevisiae deletion strains, growth OD, locus YOL136C, strain PFK27
Among all 5,500 compounds or so, about 2,000 (36%) were called active. Inconclusive results (about 18%) are left out. No stated cut-off is given here; in the data, active means normalized growth mostly below about 0.91 (no sharp cut-off); inconclusive means no clear call, values can overlap the other calls; inactive means mostly above about 0.92. The list shows a part of the results.
// classify into t for active, f for inactive

Q: # fetch the recorded call for O=C(Nc1ccccc1Sc1ccc(C(F)(F)F)cc1[N+](=O)[O-])C(Cl)Cl here
Result: f

###

- assay.procedure: chemical genetic growth profiling, strain panel (AID 1159580);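 further: tested at 20 µM; growth read once vehicle control cultures reached saturation at 30 °C; 1 = growth at the plate median or of vehicle wells; lower values mean less growth of the strain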
- applied.conditions: S. cerevisiae deletion strains, growth OD, locus YDR334W, strain swr1, hits give low values
Screen size: about 5,500 compounds; about 2,000 (36%) were called active. About 18% were inconclusive and are not listed. The list shows a part of the results.
reported.endpoint: normalized growth

As a guide, the following entries are already answered.
[
  {
    "compound": "CNC(C)[C@@H]1CC[C@@H](N)[C@@H](OC2[C@@H](N)C[C@@H](N)[C@H](OC3OC[C@](C)(O)[C@H](NC)[C@H]3O)[C@H]2O)O1 (stereo partly specified)",
    "result": "0.98 (inactive)"
  },
  {
    "compound": "O=C(/C=C/c1ccc(O)cc1)c1ccc(O)cc1O",
    "result": "1 (inactive)"
  },
  {
    "compound": "O=C(/C=C/c1ccccc1)c1ccc(O[C@@H]2O[C@H](CO)[C@@H](O)[C@H](O)[C@H]2O)cc1O",
    "result": "0.95 (inactive)"
  },
  {
    "compound": "O=C(/C=C/c1ccc(O)cc1)c1ccccc1O",
    "result": "0.301 (active)"
  },
  {
    "compound": "CC(=O)NS(=O)(=O)c1ccc(N)cc1",
    "result": "0.999 (inactive)"
  }
]

Kindly review the next compound as well.
Q: Please look at this compound and report its normalized growth: O=C(O)c1cc(=O)c2ccccc2[nH]1
Result: 0.984 (inactive)
